Where do the numbers come from? From patent US20120014876A1.

# system.tested: rat frizzled-2 receptor (rat, UniProt Q08464 29-570)
# Sequence (Q08464 29-570): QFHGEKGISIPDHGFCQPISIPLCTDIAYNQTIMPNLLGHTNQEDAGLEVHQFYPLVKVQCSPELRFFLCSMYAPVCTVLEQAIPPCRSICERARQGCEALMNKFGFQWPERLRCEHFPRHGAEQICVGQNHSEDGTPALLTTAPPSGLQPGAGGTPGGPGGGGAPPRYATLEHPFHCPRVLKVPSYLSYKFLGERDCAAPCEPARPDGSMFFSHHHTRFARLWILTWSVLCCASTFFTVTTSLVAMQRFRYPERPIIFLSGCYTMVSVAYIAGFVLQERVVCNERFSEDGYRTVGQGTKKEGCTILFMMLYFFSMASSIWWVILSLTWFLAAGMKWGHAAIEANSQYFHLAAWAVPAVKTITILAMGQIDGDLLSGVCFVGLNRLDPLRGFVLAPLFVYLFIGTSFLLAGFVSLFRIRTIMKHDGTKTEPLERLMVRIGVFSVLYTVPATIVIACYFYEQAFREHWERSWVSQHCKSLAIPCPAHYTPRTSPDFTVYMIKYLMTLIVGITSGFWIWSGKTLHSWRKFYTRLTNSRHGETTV
# test.summary: cell-based or functional assay
Where no end group is shown, it is not given here.
% of inhibition of Wnt3a-induced luciferase activity, peptide 1.10^-9 M listing for selected binders.
Hi! Could you send only the number? It should be in %, unit omitted.

> print(dat)
                                     binder  assay.result
1  CNKTSEGMDACEL-NH2 (cysteine pairing not given here) [UM206 (10 G = A)]          83.3
2  CNKASEAMAGCEL-NH2 (cysteine pairing not given here) [UM206 (4 T = A, 7 G = A, 9 D = A)]          17.5
3  CNVSSHGIDGCDL-NH2 (cysteine pairing not given here) [peptide CNVSSHGIDGCDL (SEQ ID NO:18)]          62.4
4  CNKTSEGMDGC-NH2 (cysteine pairing not given here) [UM206 - (deletion of the C-terminal Glutamic acid and Leucine)]          61.2

Attention now turns to another entry.
[Q] Read the entry CNKTSEGMDGCEA-NH2 (cysteine pairing not given here) [UM206 (13 L = A)] and write its reported % of inhibition of Wnt3a-induced luciferase activity, peptide 1.10^-9 M.
[A] 86.5
